Measured MIC values are reported for all entries that follow.
- System: Staphylococcus albus 1200A
- RUN_DESCRIPTION: Minimum inhibitory concentration, serial dilution method
- Type: cell-based
- CONDITIONS: Staphylococcus albus 1200A; 24 hours, 37° C; read-out: Minimum Inhibitory Concentration

{"COMPOUND": "CCC(=O)OC1CC(=O)OC(C)CC=CC=CC(OC(C)=O)C(C)CC(CC=O)C(OC2OC(C)C(OC3CC(C)(O)C(OC(=O)CC)C(C)O3)C(N(C)C)C2O)C1OC (stereo not drawn) [9-mono-acetyl SF-837 substance, reference compound]", "STUDY_TARGET": "Staphylococcus albus 1200A", "QUANTITY_UNIT": "µg/mL", "MIC": 0.78}
{"COMPOUND": "CCC(=O)OC1C=CC=CCC(C)OC(=O)CC(OC(=O)CC)C(OC)C(OC2OC(C)C(OC3CC(C)(OC(=O)CC)C(OC(C)=O)C(C)O3)C(N(C)C)C2O)C(CC=O)CC1C (stereo not drawn)", "STUDY_TARGET": "Staphylococcus albus 1200A", "QUANTITY_UNIT": "µg/mL", "MIC": 1.56}
{"COMPOUND": "CCC(=O)OC1CC(=O)OC(C)CC=CC=CC(OC(C)=O)C(C)CC(CC=O)C(OC2OC(C)C(OC3CC(C)(OC(=O)CC)C(OC(C)=O)C(C)O3)C(N(C)C)C2O)C1OC (stereo not drawn)", "STUDY_TARGET": "Staphylococcus albus 1200A", "QUANTITY_UNIT": "µg/mL", "MIC": 1.56}
{"COMPOUND": "CCC(=O)OC1C=CC=CCC(C)OC(=O)CC(OC(=O)CC)C(OC)C(OC2OC(C)C(OC3CC(C)(OC(=O)CC)C(OC(=O)CC)C(C)O3)C(N(C)C)C2O)C(CC=O)CC1C (stereo not drawn)", "STUDY_TARGET": "Staphylococcus albus 1200A", "QUANTITY_UNIT": "µg/mL", "MIC": 1.56}
{"COMPOUND": "CCC(=O)OC1CC(=O)OC(C)CC=CC=CC(OC(C)=O)C(C)CC(CC=O)C(OC2OC(C)C(OC3CC(C)(OC(C)=O)C(OC(=O)CC)C(C)O3)C(N(C)C)C2O)C1OC (stereo not drawn)", "STUDY_TARGET": "Staphylococcus albus 1200A", "QUANTITY_UNIT": "µg/mL", "MIC": 1.56}
{"COMPOUND": "CCC(=O)OC1CC(=O)OC(C)CC=CC=CC(OC(C)=O)C(C)CC(CC=O)C(OC2OC(C)C(OC3CC(C)(OC(=O)CC)C(OC(=O)CC)C(C)O3)C(N(C)C)C2O)C1OC (stereo not drawn)", "STUDY_TARGET": "Staphylococcus albus 1200A", "QUANTITY_UNIT": "µg/mL", "MIC": 1.56}
